IC50 values by entry
target entity: UniProt P49327
Sequence (P49327 whole entry, the tested form may be a part): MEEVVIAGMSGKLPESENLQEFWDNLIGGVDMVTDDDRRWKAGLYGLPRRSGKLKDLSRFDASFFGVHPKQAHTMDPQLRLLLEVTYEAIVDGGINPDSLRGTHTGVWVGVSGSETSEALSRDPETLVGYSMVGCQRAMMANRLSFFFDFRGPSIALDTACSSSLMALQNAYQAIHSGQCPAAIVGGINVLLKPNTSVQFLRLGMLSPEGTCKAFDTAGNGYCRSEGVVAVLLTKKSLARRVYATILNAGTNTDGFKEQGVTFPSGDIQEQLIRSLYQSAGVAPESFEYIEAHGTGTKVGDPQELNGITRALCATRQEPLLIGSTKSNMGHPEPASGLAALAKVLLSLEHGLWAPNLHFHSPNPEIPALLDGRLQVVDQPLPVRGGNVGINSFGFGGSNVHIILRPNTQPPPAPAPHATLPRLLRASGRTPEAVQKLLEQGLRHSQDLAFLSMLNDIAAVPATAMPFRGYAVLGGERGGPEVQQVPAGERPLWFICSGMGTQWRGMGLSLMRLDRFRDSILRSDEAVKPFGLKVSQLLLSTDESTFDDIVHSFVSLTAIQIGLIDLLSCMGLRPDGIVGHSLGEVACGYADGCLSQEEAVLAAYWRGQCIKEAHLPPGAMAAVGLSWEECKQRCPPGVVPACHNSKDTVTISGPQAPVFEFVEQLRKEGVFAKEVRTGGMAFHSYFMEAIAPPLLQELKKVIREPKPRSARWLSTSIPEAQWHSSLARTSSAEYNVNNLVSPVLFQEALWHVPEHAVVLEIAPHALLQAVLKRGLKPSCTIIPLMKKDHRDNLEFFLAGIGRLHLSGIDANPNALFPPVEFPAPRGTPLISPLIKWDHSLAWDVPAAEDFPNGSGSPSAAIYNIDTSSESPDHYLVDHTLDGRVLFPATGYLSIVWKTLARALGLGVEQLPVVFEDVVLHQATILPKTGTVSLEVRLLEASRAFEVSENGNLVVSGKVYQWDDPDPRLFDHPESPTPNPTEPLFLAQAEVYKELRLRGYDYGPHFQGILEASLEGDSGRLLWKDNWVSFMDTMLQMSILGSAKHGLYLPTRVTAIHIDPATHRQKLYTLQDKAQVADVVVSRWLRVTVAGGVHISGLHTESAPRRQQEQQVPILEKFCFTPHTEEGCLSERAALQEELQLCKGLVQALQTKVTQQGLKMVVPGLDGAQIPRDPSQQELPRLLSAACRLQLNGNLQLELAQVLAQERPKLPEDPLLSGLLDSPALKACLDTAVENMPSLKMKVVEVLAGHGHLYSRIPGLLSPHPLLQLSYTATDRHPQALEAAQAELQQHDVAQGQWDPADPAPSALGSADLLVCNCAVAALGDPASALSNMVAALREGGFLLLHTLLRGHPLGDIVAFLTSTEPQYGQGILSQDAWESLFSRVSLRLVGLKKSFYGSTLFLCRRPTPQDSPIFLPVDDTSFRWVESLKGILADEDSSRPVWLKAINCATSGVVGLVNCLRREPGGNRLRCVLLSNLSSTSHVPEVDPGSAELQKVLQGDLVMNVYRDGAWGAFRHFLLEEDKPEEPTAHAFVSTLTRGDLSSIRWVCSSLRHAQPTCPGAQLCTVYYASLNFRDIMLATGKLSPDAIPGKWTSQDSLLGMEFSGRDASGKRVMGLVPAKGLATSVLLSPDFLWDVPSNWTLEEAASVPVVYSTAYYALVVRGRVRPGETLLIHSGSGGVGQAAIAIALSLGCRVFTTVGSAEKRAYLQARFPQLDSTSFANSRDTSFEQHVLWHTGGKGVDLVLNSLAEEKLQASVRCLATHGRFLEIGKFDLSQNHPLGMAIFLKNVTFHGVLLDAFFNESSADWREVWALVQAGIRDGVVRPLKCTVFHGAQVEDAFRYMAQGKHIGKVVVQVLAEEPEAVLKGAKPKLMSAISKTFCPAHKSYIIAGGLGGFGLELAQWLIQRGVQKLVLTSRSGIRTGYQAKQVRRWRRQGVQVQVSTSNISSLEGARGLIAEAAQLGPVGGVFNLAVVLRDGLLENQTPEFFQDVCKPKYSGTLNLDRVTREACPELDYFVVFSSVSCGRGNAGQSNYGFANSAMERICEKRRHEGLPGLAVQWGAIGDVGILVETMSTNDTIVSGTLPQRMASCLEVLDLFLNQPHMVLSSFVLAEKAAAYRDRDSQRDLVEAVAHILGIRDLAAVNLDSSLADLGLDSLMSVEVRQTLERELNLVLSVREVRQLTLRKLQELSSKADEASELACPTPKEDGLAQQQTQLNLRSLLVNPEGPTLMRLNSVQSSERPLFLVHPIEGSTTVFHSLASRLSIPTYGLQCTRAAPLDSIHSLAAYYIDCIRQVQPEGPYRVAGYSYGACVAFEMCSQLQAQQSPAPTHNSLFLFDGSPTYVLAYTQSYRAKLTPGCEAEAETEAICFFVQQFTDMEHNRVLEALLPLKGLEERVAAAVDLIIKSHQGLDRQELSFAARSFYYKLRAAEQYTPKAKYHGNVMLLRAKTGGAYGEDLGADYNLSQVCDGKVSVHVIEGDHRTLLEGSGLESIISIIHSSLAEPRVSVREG
protocol details: FAS thioesterase domain inhibitors, dose response, biochemical, kinetic fluorescence intensity (AID 624326);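 note: rate of fluorescence rise from hydrolysis of a fluorogenic O-methyl fluorescein ester substrate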
Format: functional
Activity calls are given as the source filed them.

compound: S=C(NCCc1ccccc1)N1Cc2cc(Br)ccc2-n2nncc2C1
IC50: 7.04 µM (active)
--
compound: CC(C)(C)N1C(=O)[C@H]2[C@@H](c3ccc(Br)cc3)N3C(=O)N(c4ccc(Br)cc4)C(=O)[C@@]3(Cc3ccccc3)[C@H]2C1=O
IC50: 10.5 µM (active)
--
compound: O=[N+]([O-])c1cc(-c2csc(NCCc3nc4cc(C(F)(F)F)ccc4n3CCCO)n2)ccc1Cl
IC50: 3.93 µM (active)
--
compound: CC(Cc1ccccc1)NC(=O)c1cc([N+](=O)[O-])ccc1Cl (stereo not drawn)
IC50: 5.85 µM (active)
--
compound: COc1ccc(CNC(=O)/C=C/c2cc([N+](=O)[O-])ccc2OC(F)F)cc1OC
IC50: 3.28 µM (active)
--
compound: Cc1cccc(N2CCN(C(=O)CNC(=O)c3cccc([N+](=O)[O-])c3)CC2)c1C
IC50: 1.51 µM (active)
--
compound: C[C@H](CO)N1C[C@H](C)[C@@H](CN(C)C(=O)Nc2ccccc2)Oc2c(NC(=O)Nc3ccc(C(F)(F)F)cc3)cccc2C1=O
IC50: 2.08 µM (active)
--
compound: Cc1cc(S(=O)(=O)c2ccc(Cl)cc2)nc(S(=O)(=O)c2ccc(Cl)cc2)c1C#N
IC50: 10.4 µM (active)

* * *

target entity: Heat shock factor protein 1 (Mus musculus, UniProt P38532)
Sequence (P38532 whole entry): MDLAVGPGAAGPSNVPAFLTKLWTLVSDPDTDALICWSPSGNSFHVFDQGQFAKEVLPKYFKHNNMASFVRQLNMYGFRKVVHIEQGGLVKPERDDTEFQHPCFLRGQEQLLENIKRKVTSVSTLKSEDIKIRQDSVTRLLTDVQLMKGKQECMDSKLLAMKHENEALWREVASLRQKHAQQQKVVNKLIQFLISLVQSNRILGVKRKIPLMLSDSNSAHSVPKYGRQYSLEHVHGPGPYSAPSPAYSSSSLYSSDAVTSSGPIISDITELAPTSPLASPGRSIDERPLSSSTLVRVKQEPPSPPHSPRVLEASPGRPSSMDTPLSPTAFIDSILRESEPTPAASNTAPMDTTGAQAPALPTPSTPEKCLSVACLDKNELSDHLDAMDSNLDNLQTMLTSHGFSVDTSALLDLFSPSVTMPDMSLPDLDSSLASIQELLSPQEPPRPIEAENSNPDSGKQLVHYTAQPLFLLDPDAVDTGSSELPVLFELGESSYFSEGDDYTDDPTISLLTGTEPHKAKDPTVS
protocol details: HSF1 potentiators in luciferase reporter cells, confirmation, cell-based, NIH3T3, luminescence, dose retest (AID 435004);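 note: stress induced by proteasome inhibitor MG132 added 30 min after compound; luciferase reporter driven by HSF1 response element in NIH3T3 cells; actives raise luminescence as potentiators of the MG132 stress response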
Format: functional
Activity calls are given as the source filed them.
Labels: yes (1) (active), no (0) (inactive)

molecule: CCOC(=O)C1=CN(Cc2ccc(OC)cc2)C=C(C(=O)OCC)C1c1cccs1
target entity: Heat shock factor protein 1 (Mus musculus, UniProt P38532)
assigned label: no (0)
//
molecule: O=c1ccc2ccc(Oc3ccc([N+](=O)[O-])cc3[N+](=O)[O-])cc2o1
target entity: Heat shock factor protein 1 (Mus musculus, UniProt P38532)
assigned label: yes (1)
//
molecule: Cc1ccc(NC(=S)N=Nc2c(O)n(C)c3ccc(S(=O)(=O)N4CCOCC4)cc23)cc1
target entity: Heat shock factor protein 1 (Mus musculus, UniProt P38532)
assigned label: yes (1)
//
molecule: O=C(Nc1ccc(Cl)cn1)c1ccc([N+](=O)[O-])o1
target entity: Heat shock factor protein 1 (Mus musculus, UniProt P38532)
assigned label: yes (1)
//
molecule: COc1cccc(CN2CC(C(=O)NCc3ccc(C)o3)CCC2=O)c1 (stereo not given)
target entity: Heat shock factor protein 1 (Mus musculus, UniProt P38532)
assigned label: no (0)
//
molecule: CSc1sc(C(=O)OC(C)C)c2c1C(=O)CC(C)(C)C2
target entity: Heat shock factor protein 1 (Mus musculus, UniProt P38532)
assigned label: no (0)
//
molecule: COc1ccc(-c2cc(C(F)(F)F)nc(S(=O)(=O)CCCC(=O)Nc3cccc(O)c3)n2)cc1OC
target entity: Heat shock factor protein 1 (Mus musculus, UniProt P38532)
assigned label: yes (1)
//
molecule: CC1CCCN(C(=O)c2ccccc2OC2CCN(S(C)(=O)=O)CC2)C1 (stereo not given)
target entity: Heat shock factor protein 1 (Mus musculus, UniProt P38532)
assigned label: no (0)
//
molecule: COc1ccc2c(c1)-c1nc(/N=C/c3c(O)ccc4ccccc34)sc1CC2
target entity: Heat shock factor protein 1 (Mus musculus, UniProt P38532)
assigned label: no (0)
//
molecule: Cc1ccc(C)c(S(=O)(=O)c2c(N)n(/N=C/c3ccco3)c3nc4ccccc4nc23)c1
target entity: Heat shock factor protein 1 (Mus musculus, UniProt P38532)
assigned label: no (0)
